Could you please report measured inhibition at 10 µM for the items listed next?
# targetOrSystem: CYP2D6 (Homo sapiens, UniProt P10635)
# Construct: incubated with human liver microsomes; tissue Eurofins ITEMG232; host or cells: human liver microsomes
# Sequence (P10635 whole entry): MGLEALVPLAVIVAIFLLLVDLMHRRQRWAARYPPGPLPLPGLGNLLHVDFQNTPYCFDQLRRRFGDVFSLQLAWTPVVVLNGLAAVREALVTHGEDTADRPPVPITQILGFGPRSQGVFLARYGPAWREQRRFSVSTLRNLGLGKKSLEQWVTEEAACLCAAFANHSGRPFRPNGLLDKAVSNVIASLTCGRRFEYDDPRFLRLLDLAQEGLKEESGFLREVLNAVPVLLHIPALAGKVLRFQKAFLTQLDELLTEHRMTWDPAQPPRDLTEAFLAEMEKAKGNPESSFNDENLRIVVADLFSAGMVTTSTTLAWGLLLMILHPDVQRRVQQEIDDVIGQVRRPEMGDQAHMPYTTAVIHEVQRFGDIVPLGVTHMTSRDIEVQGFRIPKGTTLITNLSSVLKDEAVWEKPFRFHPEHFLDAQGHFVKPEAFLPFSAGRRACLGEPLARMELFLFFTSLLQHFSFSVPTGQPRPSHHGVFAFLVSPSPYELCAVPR
# experimentalProtocol: CYP inhibition in human liver microsomes, CYP2D6
# Assay type: in vitro ADME
# conditionParameters: probe dextromethorphan, substrate dextromethorphan, read-out: CYP2D6 Inh %
Numbers only here, please. The scale is %.

Measured on CYP2D6 (Homo sapiens, UniProt P10635), CCCCNC(=O)NS(=O)(=O)c1sc(CC(C)C)cc1-c1ccc(Cn2ccnc2C)cc1 [Example 4] has a documented inhibition at 10 µM of 7.7

Measured on CYP2D6 (Homo sapiens, UniProt P10635), Cc1nccn1Cc1ccc(-c2cc(CC(C)C)sc2S(=O)(=O)NC(=O)NCc2ccccc2)cc1F [Example 12] has a documented inhibition at 10 µM of 58

Measured on CYP2D6 (Homo sapiens, UniProt P10635), Cc1nccn1Cc1ccc(-c2cc(CC(C)C)sc2S(=O)(=O)NC(=O)NCc2ccccn2)cc1F [Example 13] has a documented inhibition at 10 µM of 12

Measured on CYP2D6 (Homo sapiens, UniProt P10635), CCc1nccn1Cc1ccc(-c2cc(CC(C)C)sc2S(=O)(=O)NC(=O)NCCOC)cc1 [Example 7] has a documented inhibition at 10 µM of 3.2

Measured on CYP2D6 (Homo sapiens, UniProt P10635), Cc1cn(Cc2ccc(-c3cc(CC(C)C)sc3S(=O)(=O)NC(=O)NCc3ccccc3)cc2)c(C)n1 [Example 10] has a documented inhibition at 10 µM of 31

Measured on CYP2D6 (Homo sapiens, UniProt P10635), Cc1nccn1Cc1ccc(-c2cc(CC(C)C)sc2S(=O)(=O)NC(=O)NCC2CCC(F)(F)CC2)cc1F.O=C(O)C(F)(F)F [Example 40, trifluoroacetic acid] has a documented inhibition at 10 µM of 47

Measured on CYP2D6 (Homo sapiens, UniProt P10635), CCc1nccn1Cc1ccc(-c2cc(CC(C)C)sc2S(=O)(=O)NC(=O)NCc2ccc(F)cc2)cc1F.O=C(O)C(F)(F)F [Example 32, trifluoroacetic acid] has a documented inhibition at 10 µM of 39
